System: IL-17 production by CD4 T cells
Assay: Human Th17 Assay (IL-17 production by CD4 T cells)
Type: cell-based
Conditions: Homo sapiens, CD4+ T, 72 h, IL-17 in supernatant after 3 days, Th17 differentiation conditions
Assay Endpoint: IC50 (µM)
Give just the number in µM; leave the unit off.

# annotated cases, reported IC50 shown
Molecule	Unit String	IC50
COc1nc2ccc(C(O)c3ccc(C)nc3C)cc2c(Cl)c1Cc1ccc(C(F)(F)F)cc1 (single isomer, unassigned) [Example 14b]	µM	0.17
Cc1ncc(C(O)c2ccc3nc(N4CCC4)c(Cc4ccc(-n5cccn5)cc4)c(Cl)c3c2)n1C (single isomer, unassigned) [Example 21c]	µM	2.6
Cc1ccc(C(O)c2ccc3nc(N4CCC4)c(Cc4ccc(C(F)(F)F)cc4)c(Cl)c3c2)c(C)n1 (single isomer, unassigned) [Example 23b]	µM	0.38
COc1nc2ccc(C(O)c3cnc(C)n3C)cc2c(Cl)c1Cc1ccc(C(F)(F)F)cc1 (single isomer, unassigned) [Example 15b]	µM	0.12

IC50 measured on COc1nc2ccc(C(O)c3cncn3C)cc2c(Cl)c1Cc1ccc(C(F)(F)F)cc1 (single isomer, unassigned) [Example 18c] = 0.65
